- Protocol: Evaluated for the hydrolysis rate in phosphate buffer at pH 7.4 at 37 degrees Centigrade
- Assay type: ADME
Measurement name: half-life (h)
The answer is to be given in h; state only the numeric part.

Asked: Name the recorded half-life for COc1ccc2cc(C(C)C(=O)OCCCCOC(=O)CCN3CCN(C)CC3)ccc2c1 (stereo unspecified) .
Given back: 16.8

###

- Protocol: Evaluated for the time by which 50% of total naproxen is formed in 80% human serum at a pH of 7.4
- Type: ADME
- Condition notes: pH 7.4
Measurement name: 50% naproxen formed
Answer as a quantity: numeral, then unit.

* COc1ccc2cc(C(C)C(=O)OCCCCOC(=O)CN3CCOCC3)ccc2c1 (stereo unspecified) | 11 min

Asked: Name the recorded 50% naproxen formed for COc1ccc2cc(C(C)C(=O)OCCCCOC(=O)CCN3CCN(C)CC3)ccc2c1 (stereo unspecified) .
Given back: 5 min

Asked: What do you get for COc1ccc2cc(C(C)C(=O)OCCOC(=O)CN3CCN(C)CC3)ccc2c1 (stereo unspecified) ?
Given back: 22 min

Asked: What do you get for COc1ccc2cc(C(C)C(=O)OCCCCOC(=O)CN3CCN(C)CC3)ccc2c1 (stereo unspecified) ?
Given back: 7 min

Asked: What do you get for COc1ccc2cc(C(C)C(=O)OCCOC(=O)CN3CCOCC3)ccc2c1 (stereo unspecified) ?
Given back: 25 min

Asked: What do you get for COc1ccc2cc(C(C)C(=O)OCCCCOC(=O)CCCN3CCN(C)CC3)ccc2c1 (stereo unspecified) ?
Given back: 3 min

###

Overview of reported solubility across a group of compounds:
- Protocol: Evaluated for the solubility in aqueous solution at pH 7.4
- Assay type: ADME
The answer is to be given in mM; state only the numeric part.

Answered examples (4):
* COc1ccc2cc(C(C)C(=O)OCCOC(=O)CN3CCN(C)CC3)ccc2c1 (stereo not given) | 4.1
* COc1ccc2cc(C(C)C(=O)OCCCCOC(=O)CCN3CCN(C)CC3)ccc2c1 (stereo not given) | 432
* COc1ccc2cc(C(C)C(=O)OCCCCOC(=O)CCCN3CCN(C)CC3)ccc2c1 (stereo not given) | 50
* COc1ccc2cc(C(C)C(=O)OCCOC(=O)CN3CCOCC3)ccc2c1 (stereo not given) | 0.07

Asked: Name the recorded solubility for COc1ccc2cc(C(C)C(=O)OCCCCOC(=O)CN3CCN(C)CC3)ccc2c1 (stereo not given) .
Given back: 8.8
